Target: Pepsin A (Sus scrofa)
Assay: The compound was tested for time dependent inhibition against carboxyl protease (pepsin); Yes
Activity calls are given as the source filed them. The rule behind the calls is not given here. Square brackets hold non-standard residues; d marks the D form. Peptide text beside a SMILES is read from it. * marks the point of attachment. Sta = CC(C)C[C@H](N)[C@@H](O)CC(=O)O; Isovaleryl = CC(C)CC(=O)*; NHIsopentyl = CC(C)CCN*
measuredAttribute: TDI

Worked examples, 5 molecules total:
| molecule | measuredAttribute | experimentalResult |
| --- | --- | --- |
| CC(C)CCNC(=O)[C@H](C)NC(=O)C[C@H](O)[C@H](CC(C)C)NC(=O)[C@@H](NC(=O)[C@@H](NC(=O)CC(C)C)C(C)C)C(C)C (Isovaleryl-VV[Sta]A-NHIsopentyl) | TDI | Active |
| CC(C)CCNC(=O)[C@H](C)NC(=O)C[C@H](O)[C@H](CC(C)C)NC(=O)[C@@H](NC(=O)C(C)C)C(C)C | TDI | Active |
| CC(C)CCNC(=O)[C@H](C)NC(=O)C[C@H](O)[C@H](CC(C)C)NC(=O)[C@@H](NC(=O)CC(C)C)C(C)C | TDI | Active |
| CCC(C)C(=O)N[C@H](C(=O)N[C@@H](CC(C)C)[C@@H](O)CC(=O)N[C@@H](C)C(=O)NCCC(C)C)C(C)C (some centres not stated) | TDI | Active |
| CC(C)CCNC(=O)[C@H](C)NC(=O)C[C@H](O)[C@H](CC(C)C)NC(=O)[C@@H](NC(=O)[C@@H](NC(=O)OC(C)(C)C)C(C)C)C(C)C | TDI | Active |

Provide each entry's TDI from the list below.
1. CC(C)CCNC(=O)[C@H](C)NC(=O)C[C@H](O)[C@H](CC(C)C)NC(=O)[C@@H](NC(=O)[C@H](NC(=O)OC(C)(C)C)C(C)C)C(C)C
2. CCC(CC)C(=O)N[C@H](C(=O)N[C@@H](CC(C)C)[C@@H](O)CC(=O)N[C@@H](C)C(=O)NCCC(C)C)C(C)C

Reply:
1: Active; 2: Active

Taken from ChEMBL document CHEMBL1122088.
